- assayed.target: T1, Human OSM (human, UniProt P13725 26-221)
- T1 construct: Recombinant human OSM; also called hOSM; human Oncostatin M
- T1 sequence: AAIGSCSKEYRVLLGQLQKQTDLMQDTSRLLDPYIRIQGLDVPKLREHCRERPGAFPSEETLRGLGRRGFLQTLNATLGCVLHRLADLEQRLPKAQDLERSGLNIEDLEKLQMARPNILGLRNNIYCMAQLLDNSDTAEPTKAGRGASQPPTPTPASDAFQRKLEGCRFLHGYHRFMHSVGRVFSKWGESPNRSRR
- test.method.notes: BIAcore kinetics
pKd: −log10 of the molar value.
Here the recorded pKd is given for each entry.

binder	pKd
9G2, murine anti-OSM mAb (antibody, V domains shown, Mouse hybridoma mAb; also called 9G2/C1; 9G2.C1) VH: EVQLVESGGGLVEPGGSLKLSCAASGFTFSNYAMSWVRQTPEKRLEWVATISDGGSFTYYLDNVKGRFTISRDNAKNNLYLQMSHLKSDDTAMYYCARDVGHTTFWYFDVWGTGTTVTVSS VL: DIVLTQSPVFLVISLGQRATISCRASKSVSASGYNFMHWYQQKPGQPPKVLIKYASNLESGVPARFSGSGSGTDFTLNIHPVEEEDAVTYYCQHSREFPFTFGGGTKLEIK	8.80
9G2 chimaera (antibody, human IgG1, kappa, V domains shown, Mouse V regions on human gamma 1 wild type and human kappa constant regions; also called 9G2 chimera) VH: EVQLVESGGGLVEPGGSLKLSCAASGFTFSNYAMSWVRQTPEKRLEWVATISDGGSFTYYLDNVKGRFTISRDNAKNNLYLQMSHLKSDDTAMYYCARDVGHTTFWYFDVWGTGTLVTVSS VL: DIVLTQSPVFLVISLGQRATISCRASKSVSASGYNFMHWYQQKPGQPPKVLIKYASNLESGVPARFSGSGSGTDFTLNIHPVEEEDAVTYYCQHSREFPFTFGGGTKLEIKR	8.88
anti human OSM mAb S168110G08(1)1A09 (10G8), murine (antibody, V domains shown, Mouse hybridoma mAb; also called 10G8/A9; 10G8.A9) VH: EMQLVESGEGLVEPGGSLKLSCAASGFTFSNYAMSWVRQTPEKSLEWVATISDGGSFTYYLDNVRGRFTISRDNAKNNLYLQMSHLKSDDTAMYYCARDVGHTTFWYFDVWGSGTAVTVSS VL: DIVLTQSPVFLVVSLGQRATISCRASKSVSAAGYNFMHWYQQKPGQPPKVLIKYASNLESGVPARFSGSGSGTDFTLNIHPVEEEDAVTYYCLHSREFPFTFGGGTNLEIK	9.26
10G8 chimaera (antibody, human IgG1, kappa, V domains shown, Mouse V regions on human gamma 1 wild type and human kappa constant regions; the entries called VH/VL domain (chimera) are full chains; also called 10G8 chimera; 10G8 Chimæra) VH: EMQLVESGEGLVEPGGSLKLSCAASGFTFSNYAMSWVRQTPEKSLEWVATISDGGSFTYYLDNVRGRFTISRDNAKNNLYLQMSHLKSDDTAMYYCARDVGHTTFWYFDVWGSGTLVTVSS VL: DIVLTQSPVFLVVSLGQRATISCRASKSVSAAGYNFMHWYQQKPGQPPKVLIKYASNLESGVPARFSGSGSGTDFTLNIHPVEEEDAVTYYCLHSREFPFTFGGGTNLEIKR	9.18

Where do the numbers come from? From patent US20130251724A1.
